// provenance: the supplement of paper PMC8728848

- study-system: Gal(b1-3)GlcNAc(b1-2)Man(a1-3)[GlcNAc(b1-4)][Gal(b1-3)GlcNAc(b1-2)Man(a1-6)]Man(b1-4)GlcNAc(b1-4)GlcNAc
- test-description: glycan array binding signal (z-score within array); higher = stronger binding
- assay-context: glycan notation: IUPAC condensed, linker removed
This is one part of a sample in which the strongest signals are shown more often than they occur.
readout-type: glycan array binding signal (z-score)
One number for each entry.

Example cases with answers are listed next.
{"binder": "AMA (Arum maculatun) (protein) MAKLLLLLLLPAIVGLAVPRSAAAVGSNYMLSGETLNTDGRLTNGELTLIMQVDCNLVLYHGGWQSNTANNGRDCKLTLTDFGELVIKSGTGSTVWSSGSKQSMKGNYAAVVHPEGRLVIYGPSVFKINPSGAGLNGLPLRNIPLTNNMLFSGQVLYGDGTLSARNHKLVMQGDCNMVLYGGKYGWQSNTHGNGKYCFAMLTHKGELVIRDDDFKSVWSSKSSSKQGDYVFILQDDSLAIIYGPAVFSTGSKKMISMVTN", "glycan array binding signal (z-score)": -0.205}
{"binder": "LICBM33A (Lactococcus lactis), Q9CE94 (protein) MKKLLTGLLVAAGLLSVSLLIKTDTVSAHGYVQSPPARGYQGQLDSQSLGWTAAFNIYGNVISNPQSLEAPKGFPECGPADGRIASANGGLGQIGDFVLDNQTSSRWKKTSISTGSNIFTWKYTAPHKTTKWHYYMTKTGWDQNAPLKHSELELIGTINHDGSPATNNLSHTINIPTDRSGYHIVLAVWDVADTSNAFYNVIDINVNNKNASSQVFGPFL", "glycan array binding signal (z-score)": -0.473}
{"binder": "Sebin2 (Coprinopsis cinerea), A8PE78 (protein) MTTPFYAYCHNVQDDNTWRLGLVFANRSTADEWWRAISEATSSIPITKSITRVTPQYYTHDIRVWNMYNFFVDGNIKSISDKFRGRLFITLEYDRSGRGVSVFPPLHIVDHVSGNWYYIRSKTAPHLFWFYDETRNAIYASKEKRTRFKVSIRNPSPQTPKDAIMINSDDVVIHIKESLYVGVDSYLGHIIPTRAYRTFKFGELEGGAIAGIEVAENAEERCSSTFDGASLYFVGPDSSSPGEPWELV", "glycan array binding signal (z-score)": -0.222}
{"binder": "Clec49 (Caenorhabditis elegans) (protein) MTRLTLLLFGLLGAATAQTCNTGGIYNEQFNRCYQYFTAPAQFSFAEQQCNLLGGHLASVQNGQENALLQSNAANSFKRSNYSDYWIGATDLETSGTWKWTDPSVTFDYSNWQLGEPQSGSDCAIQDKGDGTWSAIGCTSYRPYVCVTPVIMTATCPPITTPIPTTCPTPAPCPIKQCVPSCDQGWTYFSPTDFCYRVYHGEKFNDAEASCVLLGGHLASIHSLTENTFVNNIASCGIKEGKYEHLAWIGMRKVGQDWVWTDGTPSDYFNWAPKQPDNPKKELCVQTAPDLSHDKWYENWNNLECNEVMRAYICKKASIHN", "glycan array binding signal (z-score)": 3.15}
{"binder": "Calsepa (Calystegia sepium), P93114 (protein) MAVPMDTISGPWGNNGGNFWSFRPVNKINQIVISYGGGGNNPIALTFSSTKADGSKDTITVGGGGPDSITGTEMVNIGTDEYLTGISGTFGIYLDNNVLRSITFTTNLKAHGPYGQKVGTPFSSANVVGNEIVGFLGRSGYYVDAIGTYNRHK", "glycan array binding signal (z-score)": 4.21}

Respectfully, I request glycan array binding signal (z-score) for each entry included below.
1. CALR truncated at D342 (Homo sapiens) (protein) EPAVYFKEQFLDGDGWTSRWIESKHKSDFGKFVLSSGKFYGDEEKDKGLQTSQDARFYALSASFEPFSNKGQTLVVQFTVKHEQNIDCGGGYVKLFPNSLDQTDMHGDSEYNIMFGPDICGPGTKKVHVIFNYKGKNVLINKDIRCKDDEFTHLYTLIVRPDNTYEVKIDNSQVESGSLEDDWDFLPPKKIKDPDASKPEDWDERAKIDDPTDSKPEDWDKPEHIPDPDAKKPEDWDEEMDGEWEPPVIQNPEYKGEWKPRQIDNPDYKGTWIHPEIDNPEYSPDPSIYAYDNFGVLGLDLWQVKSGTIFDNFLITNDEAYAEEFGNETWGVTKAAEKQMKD
2. Sebin1 (Coprinopsis cinerea), A8PEE3 (protein) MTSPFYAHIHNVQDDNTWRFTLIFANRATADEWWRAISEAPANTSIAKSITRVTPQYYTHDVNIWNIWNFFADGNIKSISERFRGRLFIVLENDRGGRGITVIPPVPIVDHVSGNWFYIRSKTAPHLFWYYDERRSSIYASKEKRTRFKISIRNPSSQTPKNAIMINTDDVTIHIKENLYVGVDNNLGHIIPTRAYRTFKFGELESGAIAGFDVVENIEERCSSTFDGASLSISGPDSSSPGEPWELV
3. Nc3LysM (protein) QFTVPPDTTAEPNTIKTCTWWHVAGSGDSCTSIASTYGITSEQFARWDMETTDSPKNPSVATACKLTVGNSYCIENNFGQDDPPTPSISSSTLIGTATTSTTASTTTGNGISTPTPIQEGMETATTTTSSGNGITTPTPTQAGMETVGNCDRFHLVKSGDQCGTIASTYGITLANFYSWNPAVGTSCQSLWLDTYVCVRTIGFVPPKTTTTTTKKPTSTTSAGGVATPTPTQPGMETVSGCKKFHKGRGNVSTVASGDQCGTIATRYGISLANFYSWNPAVGSSCQTLWLDYYVCVGR

-0.281
2.39
0.083

Respectfully, I request glycan array binding signal (z-score) for each entry included below.
1. MXA PilAct-eGFP (Myxococcus xanthus), Q59589 (protein) MRVSRFNPRNRGFTLIELMIVVAIIGILAAIAIPNFIKFQARSKQSEAKTNLKALYTAQKSFFSEKDRYSDFANEIGFAPERGNRYGYRVSAAAGDCEVRNAADLPVPAAGVPCISNDSFRFGANSAIDDPTPVVARFVPQGAAGWNTTLGVQPTIADCPNCNFFAGARGNADNEATFDDWVIAGFEGSGQVGPCSEAGNVASGTPYNTRNDVACDGAAQ
2. Arath Fbox LD (Arabidopsis thaliana) (protein) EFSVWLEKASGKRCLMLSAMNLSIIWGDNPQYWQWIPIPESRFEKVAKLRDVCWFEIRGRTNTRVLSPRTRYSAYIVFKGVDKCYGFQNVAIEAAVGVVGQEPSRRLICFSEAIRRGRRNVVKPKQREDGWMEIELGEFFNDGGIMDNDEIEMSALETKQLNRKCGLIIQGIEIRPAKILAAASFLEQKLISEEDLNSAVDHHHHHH
3. HML-Native (Hypnea musciformis), P84871 (protein) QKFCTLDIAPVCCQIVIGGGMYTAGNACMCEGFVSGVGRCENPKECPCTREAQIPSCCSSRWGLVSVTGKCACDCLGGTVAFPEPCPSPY

[0.003, -0.473, -0.276]
